# study-target: Voltage-gated inwardly rectifying potassium channel KCNH2 (Homo sapiens) (UniProt Q12809)
# Sequence (Q12809 whole entry, looked up): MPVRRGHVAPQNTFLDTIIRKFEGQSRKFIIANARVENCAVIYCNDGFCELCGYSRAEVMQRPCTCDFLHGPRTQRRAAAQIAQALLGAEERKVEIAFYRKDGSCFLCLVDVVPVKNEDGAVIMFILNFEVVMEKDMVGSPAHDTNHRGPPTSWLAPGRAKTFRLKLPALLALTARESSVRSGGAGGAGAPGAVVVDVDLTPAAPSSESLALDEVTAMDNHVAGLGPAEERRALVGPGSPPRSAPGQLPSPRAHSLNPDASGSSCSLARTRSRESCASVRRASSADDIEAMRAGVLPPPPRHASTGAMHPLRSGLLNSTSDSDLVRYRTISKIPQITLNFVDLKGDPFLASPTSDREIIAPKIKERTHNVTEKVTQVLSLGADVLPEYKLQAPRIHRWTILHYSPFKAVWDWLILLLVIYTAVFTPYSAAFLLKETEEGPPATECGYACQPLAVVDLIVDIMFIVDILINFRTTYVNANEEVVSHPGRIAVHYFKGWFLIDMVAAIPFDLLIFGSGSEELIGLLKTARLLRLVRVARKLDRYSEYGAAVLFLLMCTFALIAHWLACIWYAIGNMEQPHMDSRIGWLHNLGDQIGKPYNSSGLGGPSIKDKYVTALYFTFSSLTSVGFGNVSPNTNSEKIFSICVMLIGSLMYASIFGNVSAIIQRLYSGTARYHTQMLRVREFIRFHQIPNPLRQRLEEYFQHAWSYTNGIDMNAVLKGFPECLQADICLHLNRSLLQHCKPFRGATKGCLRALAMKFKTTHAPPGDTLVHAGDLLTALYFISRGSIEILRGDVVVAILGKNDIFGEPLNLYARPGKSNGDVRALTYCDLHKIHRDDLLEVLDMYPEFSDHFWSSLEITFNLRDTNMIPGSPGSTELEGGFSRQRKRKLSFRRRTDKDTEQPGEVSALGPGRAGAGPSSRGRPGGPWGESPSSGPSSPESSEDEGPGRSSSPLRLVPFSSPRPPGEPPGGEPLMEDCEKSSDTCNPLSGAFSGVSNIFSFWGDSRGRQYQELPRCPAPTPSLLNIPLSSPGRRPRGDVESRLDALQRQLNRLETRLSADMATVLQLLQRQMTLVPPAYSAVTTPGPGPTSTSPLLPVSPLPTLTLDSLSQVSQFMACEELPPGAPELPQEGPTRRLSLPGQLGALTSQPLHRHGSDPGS
# assay-remarks: qHTS Assay for Small Molecule Inhibitors of the Human hERG Channel Activity (AID 588834);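 further: lower thallium flux fluorescence means stronger hERG block; nearly all actives have a fitted effect of over 50% in size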
# test-settings: U2OS BacMam hERG, FluxOR thallium flux fluorescence; series mostly up to 46.1 µM
Inconclusive results are not listed. Activity calls are given as the source filed them. The call rests on the fitted dose curve; in most records, active means well fitted inhibition curve with a large enough effect; inconclusive means small, poorly fitted or top-dose-only effect; inactive means flat fitted curve, though single readings scatter.
Possible outcomes: active, inactive

| molecule | answer-label |
| --- | --- |
| CC1CCc2cc(F)cc3c(=O)c(C(=O)O)cn1c23 (stereo not given) | inactive |
| CC(C(=O)O)c1ccc2c(c1)Cc1cccnc1O2 (stereo not given) | inactive |
| Nc1ccncc1N | inactive |
| CN[C@@H]1[C@@H](O)[C@@H](O[C@@H]2[C@H](O)[C@H](O[C@H]3OC(CN)=CC[C@H]3N)[C@@H](N)C[C@H]2N)OCC1(C)O (stereo not given in full) | inactive |
| O=C(CN1CCNCC1)NC1CCCCC1 | inactive |
| CC[C@]12CCCN3CCc4c(n(c5ccccc45)[C@@](O)(C(=O)OC)C1)[C@@H]32 | active |
| COc1ccc(-c2cc(=O)c3c(O)cc(O[C@@H]4O[C@H](CO[C@@H]5O[C@@H](C)[C@H](O)[C@@H](O)[C@H]5O)[C@@H](O)[C@H](O)[C@H]4O)cc3o2)cc1O | inactive |
| CN/C(=C\[N+](=O)[O-])NCCSCc1csc(CN(C)C)n1 | inactive |
| C[N+](C)(C)CC(O)CC(=O)[O-] (stereo not given) | inactive |
| CCCCCOC(=O)Nc1nc(=O)n([C@@H]2O[C@H](C)[C@@H](O)[C@H]2O)cc1F | inactive |
| COC(=O)c1ccccc1C(=O)c1ccc(OCCN2CCCCC2)cc1 | inactive |
| COCC(=O)Nc1c(I)c(C(=O)NCC(O)CO)c(I)c(C(=O)N(C)CC(O)CO)c1I (stereo not given) | inactive |
| CN[C@@H]1[C@H](O)[C@H](NC)[C@H]2O[C@@]3(O)C(=O)C[C@@H](C)O[C@H]3O[C@@H]2[C@H]1O | inactive |
| Cc1cc(=O)[nH]c(=S)[nH]1 | inactive |
| Nc1ccc(C(=O)Oc2ccccc2)c(O)c1 | inactive |
| NS(=O)(=O)c1ccc(NC(=O)CCC(=O)O)cc1 | inactive |
| NCC1CCC(C(=O)Oc2ccc(CCC(=O)O)cc2)CC1 (stereo not given) | inactive |
| CCN1CC(CCN2CCOCC2)C(c2ccccc2)(c2ccccc2)C1=O (stereo not given) | inactive |
| O=C(O)C(S)C(S)C(=O)O (stereo not given) | inactive |
| COc1ccc(Cc2cnc(N)nc2N)cc1OC | inactive |
| COc1ccccc1Oc1c(NS(=O)(=O)c2ccc(C(C)(C)C)cc2)nc(-c2ncccn2)nc1OCCO | inactive |
| CC(=O)N(CC(O)CO)c1c(I)c(C(=O)NCC(O)CO)c(I)c(C(=O)NCC(O)CO)c1I (stereo not given) | inactive |
| CC[N+](C)(CC)CCOC(=O)C1c2ccccc2Oc2ccccc21 | inactive |
| Cc1c(C)c2c(c(C)c1OC(=O)c1cccnc1)CC[C@@](C)(CCC[C@H](C)CCC[C@H](C)CCCC(C)C)O2 | inactive |
| Cc1cc(C)nc(NS(=O)(=O)c2ccc(N)cc2)n1 | inactive |
| CC(=O)N[C@H]1[C@H]([C@H](O)[C@H](O)CO)OC(C(=O)O)=C[C@@H]1N=C(N)N | inactive |
| O=C(O)c1ccccc1OP(=O)(O)O | inactive |
| O=C(O)[C@@H]1[C@H]2C[C@H]3c4[nH]c5ccccc5c4CCN3C[C@@H]2CC[C@@H]1O | inactive |
| COc1cc(O)cc(O)c1 | inactive |
| COc1ccccc1OC(=O)Oc1ccccc1OC | inactive |
| Cn1c(=O)c2c(ncn2CCO)n(C)c1=O | inactive |
| CCCCCCCC(=O)OCC(COC(=O)CCCCCCC)OC(=O)CCCCCCC | inactive |
| O=C1c2cccc(O)c2C(=O)c2c(O)cccc21 | inactive |
| CC(=O)Nc1ccccc1 | inactive |
| CCc1nnc(NS(=O)(=O)c2ccc(N)cc2)s1 | inactive |
| COc1ccc(C(=O)N2CCN(CC(=O)N3CCOCC3)CC2)cc1 | inactive |
| CCc1cccc(CC)c1NC(=O)CN(CC(=O)O)CC(=O)O | inactive |
| Cc1cc(-n2nc3ccc(Cl)cc3n2)c(O)c(C(C)(C)C)c1 | inactive |
| CC(=O)OC[C@H]1O[C@@](COC(C)=O)(O[C@H]2O[C@H](COC(C)=O)[C@@H](OC(C)=O)[C@H](OC(C)=O)[C@H]2OC(C)=O)[C@@H](OC(C)=O)[C@@H]1OC(C)=O | inactive |
| CCOc1cc(NC(C)=O)ccc1C(=O)OC | inactive |
| CC(=O)N[C@@H](Cc1ccc(O)cc1)C(=O)O | inactive |
| CCOC(N)=O | inactive |
| C[N+](C)(C)CC[N+]1(C)Cc2c(Cl)c(Cl)c(Cl)c(Cl)c2C1 | inactive |
| O=c1[nH]c(=O)c2ccccc2o1 | inactive |
| CCOC(=O)c1cccnc1 | inactive |
